Test system: SW-620 colon
Test: NCI tumour cell line growth inhibition, 48 h
Provide the recorded TGI for the entries that follow.

INSERT INTO results (molecule, measured_value) VALUES
  ('COc1ccc(CCn2c(=O)c3ccccc3n(C)c2=O)cc1', '> 100 µM'),
  ('Cn1cc(-c2ccc3nnc(Sc4ccc5ncccc5c4)n3n2)cn1', '> 100 µM'),
  ('CCN(c1cc(-c2ccc(CN3CCOCC3)cc2)cc(C(=O)NCc2c(C)cc(C)[nH]c2=O)c1C)C1CCOCC1', '52.4 µM');

I need TGI for every entry listed below, if you could help.
1. CC(C)(C)OC(=O)NCCCn1c2c(c3ccccc3c1=O)C(=O)c1ccccc1-2
2. CCc1cc2c(c3c1CCCC3=O)CC1(Cc3ccc(C(=O)OC)cc3C1)C2 (configuration not stated)
3. CCCC(=O)N[C@H]1C2C3CC4C5CC(C42)C1(C)C53 (some centres not stated)
4. O=C(c1cccs1)N1CCN(C(=O)c2cccs2)C1=S

1. > 100 µM
2. > 100 µM
3. > 100 µM
4. 24.6 µM

Okay, here is my list. What is TGI for each of these?
1. O=c1c(-c2ccccc2)c(SCCO)n(-c2ccccc2)c(=S)n1-c1ccccc1
2. CC1(C)CC2(CC(C)(C)N1O)NC(=O)OC2=O
3. Cc1nc(Nc2ccccn2)sc1C(=O)/C=C/c1ccc(Cl)cc1

1: > 100 µM; 2: > 100 µM; 3: > 100 µM

###

Test system: OVCAR-5 ovarian
Test: NCI tumour cell line growth inhibition, 48 h
measurement.kind: GI50

INSERT INTO measurements (compound, measured_value) VALUES
  ('O=C(Oc1ccc(CO[N+](=O)[O-])cc1)c1ccccc1', '0.172 µM'),
  ('O=C(c1ccccc1)c1c(NCC(O)CN2CCOCC2)n(Cc2ccccc2)c(=O)n(Cc2ccccc2)c1=O (stereo unspecified)', '5.53 µM'),
  ('COc1cc2c(cc1OCCCCCCN1CCN(CC(=O)Nc3ccc(Cl)cc3C(=O)c3ccccc3Cl)CC1)N=CC1CCCN1C2=O (stereo unspecified)', '0.567 µM');

# batch size: 6; output GI50 per entry
1. Cc1cc(O)c(C2=NN(c3ccc(S(N)(=O)=O)cc3)C(c3ccc(Cl)cc3)C2)c(C)c1Cl (stereo unspecified)
2. O=C([O][Sn]([O]C(=O)c1ccccn1)([c]1ccccc1)[c]1ccccc1)c1ccccn1
3. c1ccc2c(-c3nc(-c4c[nH]c5ccncc45)cs3)c[nH]c2c1
4. Cc1c(-c2ccnc(N)n2)c2c(n1Cc1ccccc1)C(=O)c1ccccc1C2=O
5. c1ccc(-c2nc(N3CCOCC3)c3c4c(sc3n2)CCCCCC4)nc1
6. O=c1/c(=C\c2ccc(F)cc2)sc2n1C(c1ccc(F)cc1)C1=C(N=2)c2ccc3ccccc3c2OCC1 (stereo unspecified)

1. 12.3 µM
2. 16.5 µM
3. 2.59 µM
4. 47.4 µM
5. 10.3 µM
6. > 100 µM

For every listed record, write down its GI50.
1. CC(C)=CCC(OC(=O)C=C(C)C)C1=CC(=O)c2c(O)ccc(O)c2C1=O (stereo unspecified)
2. O=C(Nc1ccc(-c2nc(-c3cccc(OCCN4CCOCC4)c3)c(-c3ccnc(Br)c3)[nH]2)cc1)c1ccccc1

1: 5.77 µM; 2: 3.73 µM
